The reported measurements were obtained from patent US11198681B2.

Target: hPAD4 (Homo sapiens (Human), UniProt Q9UM07)
Sequence (Q9UM07 whole entry): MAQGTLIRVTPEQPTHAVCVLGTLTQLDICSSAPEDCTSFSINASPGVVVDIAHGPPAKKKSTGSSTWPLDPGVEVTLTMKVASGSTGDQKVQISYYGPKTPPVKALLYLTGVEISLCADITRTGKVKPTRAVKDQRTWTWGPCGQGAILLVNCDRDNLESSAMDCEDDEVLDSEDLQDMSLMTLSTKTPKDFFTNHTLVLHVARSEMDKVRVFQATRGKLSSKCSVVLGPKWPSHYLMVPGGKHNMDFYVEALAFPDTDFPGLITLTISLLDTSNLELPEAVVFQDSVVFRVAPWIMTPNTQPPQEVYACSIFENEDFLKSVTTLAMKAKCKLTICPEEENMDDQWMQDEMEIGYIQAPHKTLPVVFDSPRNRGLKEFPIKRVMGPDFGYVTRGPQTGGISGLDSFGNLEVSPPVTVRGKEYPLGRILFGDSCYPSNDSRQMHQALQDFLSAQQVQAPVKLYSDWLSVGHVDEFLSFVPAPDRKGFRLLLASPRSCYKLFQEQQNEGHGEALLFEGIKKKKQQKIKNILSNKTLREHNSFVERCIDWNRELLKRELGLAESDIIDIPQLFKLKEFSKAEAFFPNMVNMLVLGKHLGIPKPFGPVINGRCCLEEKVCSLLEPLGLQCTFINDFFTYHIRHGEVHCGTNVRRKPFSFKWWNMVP
Assay: hPAD4 AR assay (Table 2)
Format: biochemical
Settings: read-out: hPAD4 AR pIC50 (converted)
# IC50 per record follows

Prompt: Report its IC50 with hPAD4 (Homo sapiens (Human), UniProt Q9UM07) as the test system: COc1cc(C(=O)N2C[C@H]3CC[C@@H]2[C@@H]3N)cc2nc(-c3cccc(=O)n3CC3CC3)n(C)c12
Completion: < 1000 nM

---

Target: hPAD4 (Homo sapiens (Human))
Experiment: hPAD4 AR assay (Table 2)
Type: biochemical
Conditions: read-out: hPAD4 AR pIC50 (converted)
quantity name: IC50

Reference set (4 entries):
- compound: "COc1cc(C(=O)N2C[C@H]3CC[C@@H]2[C@@H]3N)cc2nc(-c3ccc(C)c(=O)n3CC3CC3)n(C)c12"
  quantity name: "IC50"
  value observed: "< 1000 nM"
- compound: "COc1cc(C(=O)N2C[C@H]3CC[C@@H]2[C@@H]3N)cc2nc(-c3ccc(C#N)n3C[C@H]3C[C@@](C)(OC)C3)n(C)c12"
  quantity name: "IC50"
  value observed: "< 1000 nM"
- compound: "COc1cc(C(=O)N2C[C@H]3CC[C@@H]2[C@@H]3N)cc2nc(-c3ccc(C#N)n3C[C@H](C)c3ccccc3)n(C)c12"
  quantity name: "IC50"
  value observed: "< 1000 nM"
- compound: "COc1cccc(-c2nc3cc(C(=O)N4C[C@H]5CC[C@@H]4[C@@H]5N)cc(OC)c3n2C)n1"
  quantity name: "IC50"
  value observed: "10000 to 100000 nM"

Prompt: Give IC50 for the following compound: COc1cc(C(=O)N2C[C@H]3CC[C@@H]2[C@@H]3N)cc2nc(-c3ccc(Br)c(=O)n3CC3CC3)n(C)c12
Completion: < 1000 nM

Prompt: Give IC50 for the following compound: COc1cc(C(=O)N2C[C@H]3CC[C@@H]2[C@@H]3N)cc2nc(-c3cccnc3CC3CC3)n(C)c12
Completion: < 1000 nM

Prompt: Give IC50 for the following compound: COc1cc(C(=O)N2C[C@H]3CC[C@@H]2[C@@H]3N)cc2nc(-c3ccc(C)nc3CC3CC3)n(C)c12
Completion: < 1000 nM

Prompt: Give IC50 for the following compound: COc1cc(C(=O)N2C[C@H]3CC[C@@H]2[C@@H]3N)cc2nc(-c3cccnc3CC3CC3C)n(C)c12 (stereo partly drawn)
Completion: < 1000 nM

Prompt: Give IC50 for the following compound: Cn1c(-c2cnc(-c3ccccc3)n2CC2CC2)nc2cc(C(=O)N3C[C@H]4CC[C@@H]3[C@@H]4N)cc(F)c21
Completion: < 1000 nM

Prompt: Give IC50 for the following compound: CCn1c(-c2cnc(-c3ccccc3)n2CC2CC2)nc2cc(C(=O)N3C[C@H]4CC[C@@H]3[C@@H]4N)cc(OC)c21
Completion: < 1000 nM

Prompt: Give IC50 for the following compound: COc1cc(C(=O)N2C[C@H]3CC[C@@H]2[C@@H]3N)cc2nc(-c3ccc(C#N)n3CC(F)(F)F)n(C)c12
Completion: < 1000 nM

Prompt: Give IC50 for the following compound: COc1cc(C(=O)N2C[C@H]3CC[C@@H]2[C@@H]3N)cc2nc(-c3ccc(C#N)n3C[C@@H](C)c3ccccc3)n(C)c12
Completion: < 1000 nM
